target: UniProtKB P97639
Sequence (P97639 whole entry): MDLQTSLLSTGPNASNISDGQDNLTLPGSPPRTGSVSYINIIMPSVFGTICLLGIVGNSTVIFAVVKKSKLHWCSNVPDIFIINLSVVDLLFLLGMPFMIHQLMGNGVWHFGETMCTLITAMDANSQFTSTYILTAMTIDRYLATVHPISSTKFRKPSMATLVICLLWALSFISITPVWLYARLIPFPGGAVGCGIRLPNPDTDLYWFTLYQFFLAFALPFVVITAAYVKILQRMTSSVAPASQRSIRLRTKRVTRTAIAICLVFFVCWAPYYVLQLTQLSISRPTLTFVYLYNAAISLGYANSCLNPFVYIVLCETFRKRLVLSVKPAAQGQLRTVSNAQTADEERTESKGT
Reported Endpoint: Ki (nM)
Return type: number; implicit unit nM.

Please give the measured Ki for this molecule: CN(C)CC1CCc2cc(NC(=O)c3ccc(-c4ccc(F)cc4)cc3)ccc2C1 (stereo unspecified)
8.6
